// data source = paper PMC7957560

# System: viral hemagglutinin on virions (vHA) (Influenza A virus A/chicken/Kurgan/3654at/2005 (H5N1))
# procedure_text: BLI
# condition_set: BLI at 30 C in sodium-potassium phosphate buffer pH 7.4 ([…]
observed_property: Kd (nM)
Give bare numbers, in nM.

sequence_code | measurement_units | obs_value
GGGTTATTTTGGGAGGGCGGGGGTT [G7n5t] | nM | 0.04
TTGGGGTTATTTTGGGAGGGCGGG [G7n3t] | nM | 0.16
GGGAGGGTGGGTGGG [G7nt-A_T_T] | nM | 0.2
TTGGGGTTAGGGAGGGCGGGGGTT [G7-TTA_A_C] | nM | 0.04
GGGAGGGAGGGAGGG [G7nt-A_A_A] | nM | 0.2

Briefly, Kd measured for TTGGGGTTATTAAGGGAGGGCGGGGGTT [G7-TTATTAA_A_C] : 0.09

====

# System: viral hemagglutinin on virions (vHA) (Influenza A virus A/chicken/Kurgan/3654at/2005 (H5N1))
# procedure_text: BLI
# condition_set: BLI at 30 C in sodium-potassium phosphate buffer pH 7.4 ([…]
Record form. Attribute: log10 of Kd. Fill in for each entry.
In plain terms, each number is the log10 of measured Kd in nM.

Sample records with log10 of Kd:
sequence_code | log10 of Kd
GGGAGGGAGGGCGGG [G7nt-A_A_C] | -0.52
GGGTGGGTGGGAGGG [G7nt-T_T_A] | -0.15
GGGTTATTTTGGGAGGGCGGG [G7nt] | -0.89
GGGTGGGAGGGCGGG [G7nt-T_A_C] | -0.52
GGGTGGGAGGGTGGG [G7nt-T_A_T] | -1.15

Respectfully, I request log10 of Kd for each entry included below.
1. TTGGGGTTATTTTGGGAGGGCGGGGGTT [RHA0385]
2. GGGTGGGTGGGTGGG [G7nt-T_T_T]

Found:
-1.30
-0.22
